Target: NMDA receptor (Rattus norvegicus, UniProt P35439)
Construct: endogenous in cells
Assay: Microelectrophoretic application of NMDA to spinal neurones in vivo
Settings: rat, iv, responses of single rat spinal neurones; read-out: Microelectrophoretic NMDA ID50

compound	measureUnit	qual	ED50
O=c1[nH]nc(O)c2c1cc1cc(Br)ccc1[n+]2[O-] [Mrz 2/570]	mg/kg	=	4.5
O=c1[nH][nH]c(=O)c2nc3ccc(Br)cc3cc12 [Mrz 2/586]	mg/kg	>	16
O=c1[nH][nH]c(=O)c2nc3ccc(Cl)cc3cc12 [Mrz 2/569]	mg/kg	>	16
O=c1[nH]nc(O)c2c1cc1ccccc1[n+]2[O-] [Mrz 2/577]	mg/kg	=	34
O=c1[nH][nH]c(=O)c2nc3ccc(F)cc3cc12 [Mrz 2/572]	mg/kg	>	16

###

ED50 values, listed per item
Target: NMDA receptor (Mus musculus, UniProt P35438)
Construct: from tissue; host or cells: living mice (albino Swiss males for NMDA and PTZ tests, NMR females for MES)
Assay: Maximal electroshock (MES)-induced tonic convulsions
Type: in vivo
Details: mouse, ip, 0.25 h, i.p., 15 min before induction; read-out: MES ID50
recordedEndpoint: ED50

compound	recordedValue
O=c1[nH][nH]c(=O)c2nc3ccc(Br)cc3cc12 [Mrz 2/503]	> 100 mg/kg
O=c1[nH]nc(O)c2c1cc1cc(Cl)c(Cl)cc1[n+]2[O-] [Mrz 2/518]	> 60 mg/kg
O=c1[nH][nH]c(=O)c2nc3cc(Cl)c(Br)cc3cc12 [Mrz 2/539]	> 60 mg/kg
COc1ccc2nc3c(=O)[nH][nH]c(=O)c3cc2c1 [Mrz 2/554]	> 100 mg/kg
O=c1[nH][nH]c(=O)c2nc3cc(Br)c(Cl)cc3cc12 [Mrz 2/538]	> 60 mg/kg
O=c1[nH][nH]c(=O)c2nc3ccccc3cc12 [Mrz 2/585]	> 100 mg/kg
O=c1[nH][nH]c(=O)c2nc3ccc(F)cc3cc12 [Mrz 2/519]	> 60 mg/kg
COc1ccc2c(c1)cc1c(=O)[nH]nc(O)c1[n+]2[O-] [Mrz 2/578]	> 100 mg/kg
O=c1[nH][nH]c(=O)c2nc3ccc(Cl)cc3cc12 [Mrz 2/501]	> 100 mg/kg
O=c1[nH]nc(O)c2c1cc1cc(Br)ccc1[n+]2[O-] [Mrz 2/514]	20.2 mg/kg
O=c1[nH][nH]c(=O)c2nc3cc(Cl)c(Cl)cc3cc12 [Mrz 2/515]	> 100 mg/kg
COc1ccc2cc3c(=O)[nH][nH]c(=O)c3nc2c1 [Mrz 2/575]	> 100 mg/kg
O=c1[nH]nc(O)c2c1cc1cc(F)ccc1[n+]2[O-] [Mrz 2/516]	16.6 mg/kg

###

Biological target: NMDA receptor (Rattus norvegicus, UniProt P35439)
Construct: endogenous in cells
Experiment: Patch clamp, inward currents to NMDA in cultured superior colliculus neurones
Assay type: cell-based
Settings: NMDA 200 μM, glycine 1 μM, plateau (steady-state) currents; read-out: Plateau NMDA IC50
Could you please mark Criterion met for values of IC50 below 6000 nM and Criterion not met for values at or above it?

compound	labelValue
O=c1[nH]nc(O)c2c1cc1ccccc1[n+]2[O-]	Criterion not met
O=c1[nH][nH]c(=O)c2nc3ccc(F)cc3cc12 [Mrz 2/572]	Criterion met
O=c1[nH]nc(O)c2c1cc1cc(Cl)c(Cl)cc1[n+]2[O-]	Criterion met
O=c1[nH][nH]c(=O)c2nc3cc(Cl)c(Br)cc3cc12	Criterion met
COc1ccc2nc3c(=O)[nH][nH]c(=O)c3cc2c1	Criterion not met
O=c1[nH][nH]c(=O)c2nc3ccc(F)cc3cc12 [Mrz 2/519]	Criterion met
O=c1[nH]nc(O)c2c1cc1cc(Cl)c(Br)cc1[n+]2[O-]	Criterion met
COc1ccc2c(c1)cc1c(=O)[nH]nc(O)c1[n+]2[O-]	Criterion not met
O=c1[nH][nH]c(=O)c2nc3cc(Br)c(Cl)cc3cc12	Criterion met
O=c1[nH]nc(O)c2c1cc1cc(Br)c(Cl)cc1[n+]2[O-]	Criterion met
